- system: Tyrosine-protein phosphatase non-receptor type 1 (Homo sapiens)
- Sequence (P18031 whole entry): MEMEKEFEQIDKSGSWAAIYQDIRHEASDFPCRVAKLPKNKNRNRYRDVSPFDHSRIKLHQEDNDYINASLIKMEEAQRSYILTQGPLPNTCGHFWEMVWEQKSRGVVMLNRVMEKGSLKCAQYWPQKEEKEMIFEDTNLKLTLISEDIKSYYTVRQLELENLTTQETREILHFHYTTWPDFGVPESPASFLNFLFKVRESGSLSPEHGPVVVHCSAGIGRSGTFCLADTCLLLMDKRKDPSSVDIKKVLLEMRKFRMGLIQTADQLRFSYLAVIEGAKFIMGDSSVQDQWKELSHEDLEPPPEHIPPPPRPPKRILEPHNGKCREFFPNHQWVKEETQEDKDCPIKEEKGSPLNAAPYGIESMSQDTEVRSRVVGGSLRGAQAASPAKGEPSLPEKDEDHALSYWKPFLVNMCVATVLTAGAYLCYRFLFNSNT
- assay-details: Inhibition of recombinant human PTP1B using p-nitrophenyl phosphate as substrate after 30 mins
measurement-name: log10(IC50) (log10 of the value in µM)
Quick note: numbers are log10 of IC50, with µM as the unit.

COc1ccc(C(=O)/C=C/c2cc(Br)c(O)cc2OC)cc1 = 1.00
C=C(C)C(C)c1cc(C(=O)/C=C/c2cc(Br)c(O)cc2OC)ccc1O (stereo unspecified) = 0.84
COc1cc(O)c(Br)cc1/C=C/C(=O)c1ccc(OS(C)(=O)=O)cc1 = 1.26
COc1cc(O)c(Br)cc1/C=C/C(=O)c1ccc(O)cc1 = 1.14
COc1cc(O)c(Br)cc1/C=C/C(=O)c1ccc(-n2cccn2)cc1 = 0.78

Task: // returns reported log10(IC50) for input "COc1cc(O)c(Br)cc1/C=C/C(=O)c1ccc(O)c(CC=C(C)C)c1"
Output: 0.64

Task: What does the data say about its log10(IC50)? Entry: C=C(C)C(C)c1cc(C(=O)/C=C/c2cc(Br)c(O)cc2O)ccc1OC (stereo unspecified)
Output: 0.41
